koff overview
# experimentalSystem: T1, human common cytokine receptor γ-chain (IL-2Rγ) (human, UniProt P31785 23-262, limits assumed)
# T1 construct: Recombinant human IL-2Rγ protein, coated (ELISA) or amine-coupled to a CM5 chip (SPR); also called hu IL-2R; CD132
# T1 sequence: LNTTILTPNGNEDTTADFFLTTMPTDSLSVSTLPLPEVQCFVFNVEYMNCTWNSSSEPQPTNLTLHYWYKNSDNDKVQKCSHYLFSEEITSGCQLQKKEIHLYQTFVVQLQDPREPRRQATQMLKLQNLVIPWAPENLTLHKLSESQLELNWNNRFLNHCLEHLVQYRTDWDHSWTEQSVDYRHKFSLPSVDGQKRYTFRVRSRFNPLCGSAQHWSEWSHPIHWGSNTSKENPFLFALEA
# experimentalDetails: P.E. off-rate SPR

| binder | koff |
| --- | --- |
| FJ1427_P035MP07A06 (VHH, tested as periplasmic extract; also called Clone nr) VHH: QVQLVESGGGLVQPGGSLRLSCAASGRTLSRYAMGWFRQAPGKEREFVTANSWGGDTYYADSVQGRFTFSRDNAKNTVYLQMNSLQPEDTAVYYCAAAPTSFATTAYSSSNSYAYWGQGTQVTVSS | 0.00273 s⁻¹ |
| FJ1427_P035MP07E10 (VHH, tested as periplasmic extract; also called Clone nr; 653) VHH: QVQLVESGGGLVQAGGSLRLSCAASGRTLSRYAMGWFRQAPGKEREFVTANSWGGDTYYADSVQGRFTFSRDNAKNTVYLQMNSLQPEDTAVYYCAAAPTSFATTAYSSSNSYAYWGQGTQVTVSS | 0.0033 s⁻¹ |
| FJ1427_P035MP07D03 (VHH, tested as periplasmic extract; also called Clone nr) VHH: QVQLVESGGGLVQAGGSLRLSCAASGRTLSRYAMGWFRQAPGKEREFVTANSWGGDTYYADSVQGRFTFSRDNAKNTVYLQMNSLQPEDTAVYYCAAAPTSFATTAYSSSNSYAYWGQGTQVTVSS | 0.00339 s⁻¹ |
| FJ1427_P035MP07A05 (VHH, tested as periplasmic extract; also called Clone nr) VHH: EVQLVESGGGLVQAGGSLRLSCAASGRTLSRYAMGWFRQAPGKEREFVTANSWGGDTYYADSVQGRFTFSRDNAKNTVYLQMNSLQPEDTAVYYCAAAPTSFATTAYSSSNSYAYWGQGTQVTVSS | 0.00323 s⁻¹ |
